# Tested on: complex III (Bos taurus, UniProt P00157+P13272)
# Experimental details: Reduction of cytochrome c by reduced CoQ and analogs catalyzed by complex III
# Format: biochemical
# Condition context: 10 μM reduced CoQ or analog; blank without complex III
Observation type: Non-enzymatic Rate of Cytochrome c Reduction (nmol/min)

compound="CCCCCC1=C(C)C(=O)C(OC)=C(OC)C1=O [Pentyl]" tested_on="complex III (Bos taurus, UniProt P00157+P13272)" reported_result=0.2
compound="COC1=C(OC)C(=O)C(C/C=C(\\C)CCC=C(C)C)=C(C)C1=O [Q2, reference compound]" tested_on="complex III (Bos taurus, UniProt P00157+P13272)" reported_result=0.2
compound="COC1=C(OC)C(=O)C(CC=C(C)C)=C(C)C1=O [Q1, reference compound]" tested_on="complex III (Bos taurus, UniProt P00157+P13272)" reported_result=0.6
compound="CCCCCCCCCCC1=C(C)C(=O)C(OC)=C(OC)C1=O [Decyl]" tested_on="complex III (Bos taurus, UniProt P00157+P13272)" reported_result=0.2

---

# Tested on: succinoxidase system of beef heart mitochondria
# Experimental details: CoQ activity: restoring succinoxidase activity of pentane-extracted beef heart mitochondria (manometric)
# Format: biochemical
# Condition context: 400 nmoles of analog, relative to the response to 400 nmoles CoQ10
Observation type: Activation at 400 nMoles % (%)

compound=CCCCCCCCCCCCCCCC1=C(C)C(=O)C(OC)=C(OC)C1=O tested_on="succinoxidase system of beef heart mitochondria" observation_type="Activation at 400 nMoles %" reported_result=121
compound="COC1=C(OC)C(=O)C(C/C=C(\\C)CC/C=C(\\C)CC/C=C(\\C)CC/C=C(\\C)CC/C=C(\\C)CC/C=C(\\C)CC/C=C(\\C)CC/C=C(\\C)CC/C=C(\\C)CCC=C(C)C)=C(C)C1=O [CoQ10, coenzyme Q10, reference compound]" tested_on="succinoxidase system of beef heart mitochondria" observation_type="Activation at 400 nMoles %" reported_result=100
compound=CCC=CCC=CCC=CCCCCCCCCCC1=C(C)C(=O)C(OC)=C(OC)C1=O tested_on="succinoxidase system of beef heart mitochondria" observation_type="Activation at 400 nMoles %" reported_result=128
compound="COC1=C(OC)C(=O)C(C/C=C(\\C)CC/C=C(\\C)CC/C=C(\\C)CCC=C(C)C)=C(C)C1=O [CoQ4, reference compound]" tested_on="succinoxidase system of beef heart mitochondria" observation_type="Activation at 400 nMoles %" reported_result=128
compound=CCC=CCC=CCC=CCCCCCCCC1=C(C)C(=O)C(OC)=C(OC)C1=O tested_on="succinoxidase system of beef heart mitochondria" observation_type="Activation at 400 nMoles %" reported_result=123
compound=CCCCCC1=C(C)C(=O)C(OC)=C(OC)C1=O tested_on="succinoxidase system of beef heart mitochondria" observation_type="Activation at 400 nMoles %" reported_result=110
compound=CCCCCCCCCCC1=C(C)C(=O)C(OC)=C(OC)C1=O tested_on="succinoxidase system of beef heart mitochondria" observation_type="Activation at 400 nMoles %" reported_result=123
compound=CCCCCCCCC=CCCCCCCCC1=C(C)C(=O)C(OC)=C(OC)C1=O tested_on="succinoxidase system of beef heart mitochondria" observation_type="Activation at 400 nMoles %" reported_result=121
compound="COC1=C(OC)C(=O)C(C/C=C(\\C)CCCC(C)CCCC(C)CCCC(C)C)=C(C)C1=O (stereo not drawn) [H6 CoQ4, hexahydrocoenzyme Q4, reference compound]" tested_on="succinoxidase system of beef heart mitochondria" observation_type="Activation at 400 nMoles %" reported_result=121

---

# Tested on: succinoxidase system of beef heart mitochondria
# Experimental details: CoQ activity: restoring succinoxidase activity of pentane-extracted beef heart mitochondria (manometric)
# Type: biochemical
# Condition context: level required to reinstate approximately 50% of maximum succinoxidase activity; 0.65-0.85 mg PEBHM
Observation type: Estimated nMoles Required for 50% Activation (nmol)

// known answers, use as guide
compound="COC1=C(OC)C(=O)C(C/C=C(\\C)CC/C=C(\\C)CC/C=C(\\C)CC/C=C(\\C)CC/C=C(\\C)CC/C=C(\\C)CC/C=C(\\C)CC/C=C(\\C)CC/C=C(\\C)CCC=C(C)C)=C(C)C1=O [CoQ10, coenzyme Q10, reference compound]" result_units=nmol reported_result=41.7
compound=CCC=CCC=CCC=CCCCCCCCC1=C(C)C(=O)C(OC)=C(OC)C1=O result_units=nmol reported_result=3.3

A = CCCCCCCCC=CCCCCCCCCCC1=C(C)C(=O)C(OC)=C(OC)C1=O
B = COC1=C(OC)C(=O)C(C/C=C(\C)CCCC(C)CCCC(C)CCCC(C)C)=C(C)C1=O (stereo not shown) [H6 CoQ4, hexahydrocoenzyme Q4, reference compound]
Ask | Lab note: check whether A or B has the lower measured Estimated nMoles Required for 50% Activation. Write the label of whichever entry you select.
Reply | A

---

# System: succinoxidase system of beef heart mitochondria
# Experimental details: CoQ activity: restoring succinoxidase activity of pentane-extracted beef heart mitochondria (manometric)
# Type: biochemical
# Condition context: molar amounts of analog and CoQ4 required to restore the same level of succinoxidase to PEBHM; relative to CoQ4
Observation type: Relative Effectiveness (%)

compound=CCCCCCCCC=CCCCCCCCC1=C(C)C(=O)C(OC)=C(OC)C1=O tested_on="succinoxidase system of beef heart mitochondria" reported_result=28

P = CCC=CCC=CCC=CCCCCCCCCCC1=C(C)C(=O)C(OC)=C(OC)C1=O
Q = CCCCCCCCCCCCCCCC1=C(C)C(=O)C(OC)=C(OC)C1=O
Ask | // returns P or Q , whichever has the lower Relative Effectiveness Refer to your chosen entry by its label in the reply.
Reply | Q
(Q: 21%, P: 49%)

a = CCC=CCC=CCC=CCCCCCCCC1=C(C)C(=O)C(OC)=C(OC)C1=O
b = COC1=C(OC)C(=O)C(C/C=C(\C)CCCC(C)CCCC(C)CCCC(C)C)=C(C)C1=O (stereo not drawn) [H6 CoQ4, hexahydrocoenzyme Q4, reference compound]
c = CCCCCC=CCC=CCC=CCC=CCCCC1=C(C)C(=O)C(OC)=C(OC)C1=O
Ask | Rank descending by Relative Effectiveness. The response must list the labels following the requested ordering.
Reply | a, c, b

---

# Tested on: complex III (Bos taurus, UniProt P00157+P13272)
# Experimental details: Reduction of cytochrome c by reduced CoQ and analogs catalyzed by complex III
# Assay type: biochemical
# Condition context: antimycin A 1 μg/ml
Observation type: % Inhibition by Antimycin A (%)

compound=CCCCCC1=C(C)C(=O)C(OC)=C(OC)C1=O tested_on="complex III (Bos taurus, UniProt P00157+P13272)" result_units=% reported_result=100
compound=CCCCCCCCCCC1=C(C)C(=O)C(OC)=C(OC)C1=O tested_on="complex III (Bos taurus, UniProt P00157+P13272)" result_units=% reported_result=98
compound="COC1=C(OC)C(=O)C(C/C=C(\\C)CCC=C(C)C)=C(C)C1=O [Q2, reference compound]" tested_on="complex III (Bos taurus, UniProt P00157+P13272)" result_units=% reported_result=98
compound="COC1=C(OC)C(=O)C(CC=C(C)C)=C(C)C1=O [Q1, reference compound]" tested_on="complex III (Bos taurus, UniProt P00157+P13272)" result_units=% reported_result=100

---

# Tested on: succinoxidase system of beef heart mitochondria
# Experimental details: CoQ activity: restoring succinoxidase activity of pentane-extracted beef heart mitochondria (manometric)
# Type: biochemical
# Condition context: 400 nmoles of analog, relative to the response to 400 nmoles CoQ10
Observation type: Activation at 400 nMoles % (%)

compound="CCCCCC=CCC=CCCCCCCCC1=C(C)C(=O)C(OC)=C(OC)C1=O [8', 11'-Heptadecadienyl]" observation_type="Activation at 400 nMoles %" reported_result=122
compound="CCCCCC=CCC=CCC=CCC=CCCCC1=C(C)C(=O)C(OC)=C(OC)C1=O [4', 7', 10', 13'-Nonadecatetraenyl]" observation_type="Activation at 400 nMoles %" reported_result=118
compound="CCCCCC=CCC=CCCCCCCCCCC1=C(C)C(=O)C(OC)=C(OC)C1=O [10', 13'-Nonadecadienyl]" observation_type="Activation at 400 nMoles %" reported_result=123

A = COC1=C(OC)C(=O)C(C/C=C(\C)CC/C=C(\C)CC/C=C(\C)CC/C=C(\C)CC/C=C(\C)CC/C=C(\C)CCC=C(C)C)=C(C)C1=O [CoQ7, reference compound]
B = CCCCCCCCCCCCCCCCCCCCC1=C(C)C(=O)C(OC)=C(OC)C1=O [Eicosyl]
Ask | Two entries are listed, A and B . Which one carries the higher Activation at 400 nMoles %? Returns: label corresponding to the selected item.
Reply | A

Hey, just so you know, these numbers are from patent US3974187A.
